// reported pI50 Fum for each item listed
tested on: Fusarium proliferatum; experiment: Production of Fumonisin FB1 by Fusarium proliferatum (microtitre plates; FB1 by HPLC-MS/MS, growth by OD620); format: cell-based; conditions: FB1 concentration in liquid medium after 6 days at 20° C., HPLC-MS/MS
measurement_name: pI50 Fum

• O=C1OCCN1c1cccc(Nc2ncc(C(F)(F)F)c(NC3CCC3)n2)c1 [Example 194] = 6.1
• CC(C)Nc1nc(Nc2cccc(N3C(=O)C(C)CC3C)c2)ncc1Cl (stereo not drawn) [Example 141] = 5.3
• CC1COC(=O)N1c1cccc(Nc2ncc(Cl)c(NCC(F)(F)F)n2)c1 (stereo not drawn) [Example 169] = 5.5
• CC(C)Nc1nc(Nc2cccc(N3C(=O)CC(C)(C)C3=O)c2)ncc1Cl [Example 140] = 5.7
• CC1CCC(=O)N1c1cccc(Nc2ncc(Br)c(NC3CC3)n2)c1 (stereo not drawn) [Example 60] = 6.3
• CC1COC(=O)N1c1cccc(Nc2ncc(Br)c(NC3CCC3)n2)c1 (stereo not drawn) [Example 56] = 6.2
• CC1CCC(=O)N1c1cccc(Nc2ncc(Br)c(NC3CCC3)n2)c1 (stereo not drawn) [Example 36] = 6.2
• CN(c1nc(Nc2ccc(F)c(N3CCCC3=O)c2)ncc1Cl)C1CC1 [Example 198] = 5.5
• CCC1=C(C)CN(c2cccc(Nc3ncc(Cl)c(NC4CC4)n3)c2)C1=O [Example 224] = 6
• CN(c1nc(Nc2cccc(N3C(=O)CC(C)(C)C3=O)c2)ncc1Cl)C1CC1 [Example 177] = 6.1
• CC1CC(=O)N(c2cccc(Nc3ncc(Cl)c(NC4CC4)n3)c2)C1=O (stereo not drawn) [Example 65] = 6.2
• CC1CC1Nc1nc(Nc2cccc(N3CCCC3=O)c2)ncc1C(F)(F)F (stereo not drawn) [Example 219] = 6.3
• O=C1CCC(=O)N1c1cccc(Nc2ncc(Cl)c(NC3CC3)n2)c1 [Example 195] = 6.2
• C[C@H]1COC(=O)N1c1cccc(Nc2ncc(Cl)c(NC3CC3)n2)c1 [Example 92] = 6.6
• CC(C)[C@H]1COC(=O)N1c1cccc(Nc2ncc(Cl)c(NC3CC3)n2)c1 [Example 76] = 6.2

* * *

experiment: log P by HPLC on reversed-phase columns (C 18), method [a], acidic range pH 2.3; format: physicochemical; settings: pH 2.3
measurement_name: log p

• CC(C)N(C)c1nc(Nc2cccc(N3CCCC3=O)c2)ncc1Cl = 2.1[a];
• CSCC(C)(C)Nc1nc(Nc2cccc(N3CCCC3=O)c2)ncc1Cl = 2.17[a];
• O=C1CCCN1c1cc(Nc2ncc(Cl)c(NCC(F)F)n2)ccc1F = 1.72[a];
• CC1CCC(=O)N1c1cccc(Nc2ncc(Br)c(NC3CC3)n2)c1 (stereo not drawn) = 1.72[a];
• O=C1CCC(CO)N1c1cccc(Nc2ncc(Cl)c(NC3CC3)n2)c1 (stereo not drawn) [Example 136] = 0.96[a];
• O=C1CCCCCN1c1cccc(Nc2ncc(Br)c(NC3CC3)n2)c1 = 1.82[a]
• O=C1CCCN1c1ccc(Nc2ncc(Cl)c(NC3COC3)n2)cc1 = 0.41[a];
• COC1=CC(=O)N(c2cccc(Nc3ncc(Br)c(NC4CC4)n3)c2)C1 = 1.77[a];
• COCC(C)Nc1nc(Nc2cccc(N3CCCC3=O)c2)ncc1C(F)(F)F (stereo not drawn) = 2.4[a];
• O=C1CCCN1c1ccc(Nc2ncc(Cl)c(NCC(F)(F)F)n2)cc1 = 1.96[a];
• CN1CCN(c2cccc(Nc3ncc(Cl)c(NC4CC4(C)C)n3)c2)C1=O (stereo not drawn) = 1.93[a];
• CC1CCN(c2cccc(Nc3ncc(Br)c(NC4CCC4)n3)c2)C1=O (stereo not drawn) = 2.24[a];
• C[C@@H]1CCN(c2cccc(Nc3ncc(Cl)c(NC4CC4)n3)c2)C1=O = 2.86[a];
• O=C1CCC(CO)N1c1cccc(Nc2ncc(Br)c(NC3CC3)n2)c1 (stereo not drawn) = 1.04[a];
• COCC(C)Nc1nc(Nc2cccc(N3CCCC3=O)c2)ncc1Cl (stereo not drawn) = 1.53[a]
• CCC1COC(=O)N1c1cccc(Nc2ncc(Br)c(NC3CC3)n2)c1 (stereo not drawn) = 2.01[a]
• CCC1COC(=O)N1c1cccc(Nc2ncc(Cl)c(NC3CC3)n2)c1 (stereo not drawn) = 1.86[a]
• CCC1=C(C)CN(c2cccc(Nc3ncc(Br)c(NC4CC4)n3)c2)C1=O = 2.42[a]
• CC1CCC(=O)N1c1cccc(Nc2ncc(Cl)c(NC3CC3)n2)c1 (stereo not drawn) [Example 126] = 2.59[a];
• O=C1CCC(c2ccccc2)N1c1cccc(Nc2ncc(Cl)c(NC3CC3)n2)c1 (stereo not drawn) = 2.1[a]
• O=C1C(O)CCN1c1cccc(Nc2ncc(Cl)c(NC3CC3)n2)c1 (stereo not drawn) = 1.14[a];
• CC(C)C1COC(=O)N1c1cccc(Nc2ncc(Cl)c(NC3CCC3)n2)c1 (stereo not drawn) = 2.41[a]
• CC1(C)CC1Nc1nc(Nc2cccc(N3CCCC3=O)c2)ncc1Cl (stereo not drawn) = 1.98[a];
• CC(C)C1COC(=O)N1c1cccc(Nc2ncc(Br)c(NC3CC3)n2)c1 (stereo not drawn) = 2.24[a]
